- test-target: FGFR2 (Homo sapiens, UniProt P21802)
- Sequence (P21802 399-821 limits assumed): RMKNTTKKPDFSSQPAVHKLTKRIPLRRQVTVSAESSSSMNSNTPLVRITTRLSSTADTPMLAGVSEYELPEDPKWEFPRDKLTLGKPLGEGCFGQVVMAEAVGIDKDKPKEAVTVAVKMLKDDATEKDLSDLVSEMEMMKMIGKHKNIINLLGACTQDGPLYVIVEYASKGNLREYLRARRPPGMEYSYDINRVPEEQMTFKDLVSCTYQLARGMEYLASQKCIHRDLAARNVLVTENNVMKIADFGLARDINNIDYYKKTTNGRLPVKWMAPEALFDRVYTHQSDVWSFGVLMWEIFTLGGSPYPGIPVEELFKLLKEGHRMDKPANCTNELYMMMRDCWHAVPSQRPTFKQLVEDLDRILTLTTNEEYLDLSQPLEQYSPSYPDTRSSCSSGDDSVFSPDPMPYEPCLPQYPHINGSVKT
- assay-details: FGFR wild type enzyme assay (HTRF KinEASE-TK), FGFR2
- experimental-conditions: Enz FGFR2 (nM), FGFR2 wild type enzyme
IC50 for assorted compounds
Please respond with the number in nM and leave the unit unwritten.

Below: 3 compounds and their reported IC50.
{"given-smiles": "Cc1c(-c2cc(Sc3ncccc3F)c3c(C#N)cnn3c2)cnn1C1CCN([C@@H](C)CO)CC1", "test-target": "FGFR2 (Homo sapiens, UniProt P21802)", "outcome-measure": "IC50", "recorded-result": 2}
{"given-smiles": "Cc1c(-c2cc(Sc3ncccc3F)c3c(C#N)cnn3c2)cnn1[C@H]1CC[C@@H](N)CC1", "test-target": "FGFR2 (Homo sapiens, UniProt P21802)", "outcome-measure": "IC50", "recorded-result": 3}
{"given-smiles": "CC(=O)N1[C@@H]2CC[C@H]1C[C@H](n1ncc(-c3cc(Sc4ncccc4F)c4c(C#N)cnn4c3)c1C)C2", "test-target": "FGFR2 (Homo sapiens, UniProt P21802)", "outcome-measure": "IC50", "recorded-result": 3}

Now, please, on to the next compound.
Query string: Provide the documented IC50 with FGFR2 (Homo sapiens, UniProt P21802) as the system for CC(=O)N1CCC[C@@H](Cn2ncc(-c3cc(Sc4ccccc4C#N)c4c(C#N)cnn4c3)c2C)C1
Result string: 8

###

# IC50 annotations
- test-target: FGFR2 (Homo sapiens, UniProt P21802)
- assay-details: FGFR wild type enzyme assay (HTRF KinEASE-TK), FGFR2
- experimental-conditions: Enz FGFR2 (nM), FGFR2 wild type enzyme assay
Give the number; nM is assumed, so skip it.

// below: answered compounds
{"compound": "Cn1cc(-c2cc(Sc3ccccc3C#N)c3c(C#N)cnn3c2)c(N)n1", "IC50 / nM": 2}
{"compound": "CC(=O)NC1CCN(c2ccc(-c3cc(Sc4ccccc4C#N)c4c(C#N)cnn4c3)cn2)C1 (stereo not drawn)", "IC50 / nM": 1}

Query string: Reported IC50, compound C[C@@H](O)C(=O)N1CCC(n2cc(-c3cc(Sc4ccc(F)cc4C#N)c4c(C#N)cnn4c3)cn2)CC1 : ____
Result string: 1

###

- test-target: FGFR2 (Homo sapiens)
- assay-details: FGFR wild type enzyme assay (HTRF KinEASE-TK), FGFR2
- experimental-conditions: Enz FGFR2 (nM), FGFR2 wild type enzyme
Known IC50 of a selection of compounds
Kindly answer with a numeric value in nM, unit omitted.

{"given-smiles": "Cc1c(-c2cc(Sc3ncccc3F)c3c(C#N)cnn3c2)cnn1C1CCN(C(=O)[C@@H]2C[C@@H](F)CN2C)CC1", "IC50, nM": 1}
{"given-smiles": "Cc1c(-c2cc(Sc3ncccc3F)c3c(C#N)cnn3c2)cnn1C1CC2(CCNCC2)C1", "IC50, nM": 1}

Proceed to the following item.
Query string: Please report the recorded IC50 for Cc1c(-c2cc(Sc3ncccc3F)c3c(C#N)cnn3c2)cnn1[C@@H]1CCNC[C@H]1F .
Result string: 8

###

The following compounds are listed with their measured IC50 values.
- test-target: FGFR2 (Homo sapiens, UniProt P21802)
- assay-details: FGFR wild type enzyme assay (HTRF KinEASE-TK), FGFR2
- experimental-conditions: Enz FGFR2 (nM), FGFR2 wild type enzyme assay
Supply the numeric figure in nM, leaving out any unit text.

For orientation, consider the following solved cases.
{"given-smiles": "C[C@H](O)Cn1cc(-c2cc(Sc3ccccc3C#N)c3c(C#N)cnn3c2)cn1", "test-target": "FGFR2 (Homo sapiens, UniProt P21802)", "IC50, nM": 1}
{"given-smiles": "N#Cc1ccccc1Sc1cc(-c2cnn(CCCO)c2)cn2ncc(C#N)c12", "test-target": "FGFR2 (Homo sapiens, UniProt P21802)", "IC50, nM": 1}

Query string: Quick one: IC50 for Cc1c(-c2cc(Sc3ccc(F)cc3C#N)c3c(C#N)cnn3c2)cnn1C1CCN(C(=O)CO)CC1 ?
Result string: 1

Sourced from patent US20240270741A1
